Assign pIC50 to each entry below.
Biological target: Prostaglandin G/H synthase 2 (Homo sapiens, UniProt P35354)
Sequence (P35354 whole entry): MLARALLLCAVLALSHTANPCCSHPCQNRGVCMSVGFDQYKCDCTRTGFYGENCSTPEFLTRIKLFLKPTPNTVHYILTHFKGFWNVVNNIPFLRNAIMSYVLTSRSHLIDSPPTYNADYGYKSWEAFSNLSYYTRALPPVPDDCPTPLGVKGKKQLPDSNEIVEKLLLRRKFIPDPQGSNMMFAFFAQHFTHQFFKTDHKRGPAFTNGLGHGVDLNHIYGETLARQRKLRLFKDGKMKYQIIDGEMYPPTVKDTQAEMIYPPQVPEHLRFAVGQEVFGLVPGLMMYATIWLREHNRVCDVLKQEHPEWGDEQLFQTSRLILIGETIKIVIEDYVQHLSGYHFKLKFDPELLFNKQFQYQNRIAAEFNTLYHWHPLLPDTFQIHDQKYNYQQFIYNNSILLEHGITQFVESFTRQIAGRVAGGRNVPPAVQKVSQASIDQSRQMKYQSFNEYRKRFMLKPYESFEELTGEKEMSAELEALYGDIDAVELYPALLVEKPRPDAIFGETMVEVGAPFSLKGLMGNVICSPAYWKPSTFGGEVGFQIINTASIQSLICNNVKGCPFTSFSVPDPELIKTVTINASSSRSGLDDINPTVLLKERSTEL
Test: Inhibition of human recombinant COX2 using arachidonic acid substrate assessed as PGE2 production ELISA method after 2 mins
Schema: pIC50 number; meaning minus log10 of the concentration expressed in molar units.

Which pIC50 value belongs to O=C(/C=C/c1ccc(N2CCCC2)cc1)/C=C/c1ccc(N2CCCC2)cc1 ?
4.16

And the next one, CN(C)c1ccc(/C=C2\CN(Cc3ccccc3)C/C(=C\c3ccc(N(C)C)cc3[N+](=O)[O-])C2=O)c([N+](=O)[O-])c1 ?
4.72

Field entry: O=C1/C(=C/c2ccc(N3CCCC3)cc2)Cc2ccccc21
4.26

The measurements presented in this section are drawn from ChEMBL document CHEMBL3352402.
